- target-under-test: c-Met (Homo sapiens)
- Construct: Kinases are expressed as either kinase domains or full length constructs; made in house
- Sequence (P08581 25-1390): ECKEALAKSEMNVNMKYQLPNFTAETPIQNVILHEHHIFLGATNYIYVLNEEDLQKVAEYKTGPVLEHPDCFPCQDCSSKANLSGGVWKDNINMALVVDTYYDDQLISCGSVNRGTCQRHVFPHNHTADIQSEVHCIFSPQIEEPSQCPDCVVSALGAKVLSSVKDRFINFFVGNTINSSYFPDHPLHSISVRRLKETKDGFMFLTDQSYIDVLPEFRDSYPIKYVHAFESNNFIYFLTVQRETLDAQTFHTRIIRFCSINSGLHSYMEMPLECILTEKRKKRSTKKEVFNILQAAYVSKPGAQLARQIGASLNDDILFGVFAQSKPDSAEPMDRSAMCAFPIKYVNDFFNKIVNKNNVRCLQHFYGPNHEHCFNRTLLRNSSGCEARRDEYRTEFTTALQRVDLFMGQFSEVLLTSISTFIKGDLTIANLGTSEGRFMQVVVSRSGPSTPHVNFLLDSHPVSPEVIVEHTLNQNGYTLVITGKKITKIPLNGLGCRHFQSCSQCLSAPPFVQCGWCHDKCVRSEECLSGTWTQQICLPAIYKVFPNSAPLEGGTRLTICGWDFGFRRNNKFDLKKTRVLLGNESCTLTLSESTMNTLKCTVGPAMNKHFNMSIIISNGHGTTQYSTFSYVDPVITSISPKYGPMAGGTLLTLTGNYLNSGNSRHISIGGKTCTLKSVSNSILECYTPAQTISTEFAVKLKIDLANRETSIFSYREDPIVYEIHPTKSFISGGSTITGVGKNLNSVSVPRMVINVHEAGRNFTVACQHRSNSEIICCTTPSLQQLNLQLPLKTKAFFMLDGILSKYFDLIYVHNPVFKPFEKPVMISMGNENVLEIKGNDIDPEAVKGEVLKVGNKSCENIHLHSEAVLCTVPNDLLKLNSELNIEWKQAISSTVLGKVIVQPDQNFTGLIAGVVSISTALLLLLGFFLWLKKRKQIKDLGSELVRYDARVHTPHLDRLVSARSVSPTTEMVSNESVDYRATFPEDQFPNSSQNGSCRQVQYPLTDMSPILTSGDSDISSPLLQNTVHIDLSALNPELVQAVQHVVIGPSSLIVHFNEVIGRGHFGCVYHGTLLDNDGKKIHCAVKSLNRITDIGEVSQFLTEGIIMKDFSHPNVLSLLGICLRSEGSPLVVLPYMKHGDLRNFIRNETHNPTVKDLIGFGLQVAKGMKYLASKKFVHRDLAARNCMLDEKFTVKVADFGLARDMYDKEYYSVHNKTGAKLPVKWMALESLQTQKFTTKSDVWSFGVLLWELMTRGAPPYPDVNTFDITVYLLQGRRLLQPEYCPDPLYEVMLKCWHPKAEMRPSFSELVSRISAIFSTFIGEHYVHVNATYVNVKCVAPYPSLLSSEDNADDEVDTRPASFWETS
- experimental-protocol: Kinase inhibition assay (33P transfer), c-Met
- Type: biochemical
- settings: Table 2, class symbols A-E; read-out: Met-1
measure: IC50

                           molecular_string     target_under_test           result
0  COC(=O)c1ccc(N(C)c2ncnc(Nc3ccc(OC)c(OC)c3)n2)cc1  c-Met (Homo sapiens)        < 1.01 µM
1  COC(=O)c1ccc(-c2cc(Nc3ncnc(NCc4ccco4)n3)[nH]n2)cc1  c-Met (Homo sapiens)  6.13 to 8.94 µM
2  COC(=O)c1ccc(-c2cc(Nc3ncnc(NCCN4CCOCC4)n3)[nH]n2)cc1  c-Met (Homo sapiens)        > 10.6 µM
3  Cc1ccc2c(c1)CCCN2c1ncnc(Nc2c(C)ccc3ccccc23)n1  c-Met (Homo sapiens)        > 11.8 µM
